Assay: Cytotoxicity against CEM T cells after 72 hrs by proliferation assay
Assay type: cell-based, CCRF-CEM
Details: human, CCRF-CEM (CEM) T cells
This listing pairs compounds with measured CC50 at 72 h.
Property Label: CC50 at 72 h (µM)

| Entry Smiles | Observed |
| --- | --- |
| N[C@@H]1C[C@H](N)CN(c2nc(Nc3ccc(C(=O)CC(=O)Nc4ccc(-c5ccccc5)cc4)cc3)nc(N3C[C@H](N)C[C@H](N)C3)n2)C1 | 24 |
| Cc1ccc2nc(-c3ccc(Nc4nc(N5C[C@H](N)C[C@H](N)C5)nc(N5C[C@H](N)C[C@H](N)C5)n4)cc3)sc2c1 | 33 |
| N[C@@H]1C[C@H](N)CN(c2nc(Nc3ccc(NC(=O)C(=O)c4c[nH]c5ccccc45)c(O)c3)nc(N3C[C@H](N)C[C@H](N)C3)n2)C1 | 92 |
| N[C@@H]1C[C@H](N)CN(c2nc(Nc3ccc(C(=O)CC(=O)Nc4ccccc4Cl)cc3)nc(N3C[C@H](N)C[C@H](N)C3)n2)C1 | 71 |

---

Experiment: Cytotoxicity against CEM T cells after 72 hrs by proliferation assay
Format: cell-based, CCRF-CEM
Details: human, CCRF-CEM (CEM) T cells
Labelling: CC50 at 72 h reported below 100 µM becomes Yes; at or above becomes No.

| Entry Smiles | Classification |
| --- | --- |
| N[C@@H]1C[C@H](N)CN(c2nc(Nc3ccc(NC(=O)c4ccc(Cl)cc4)c(O)c3)nc(N3C[C@H](N)C[C@H](N)C3)n2)C1 | No |
| N[C@@H]1C[C@H](N)CN(c2nc(Nc3ccc(C(=O)CC(=O)Nc4ccc5c(c4)OC(F)(F)O5)cc3)nc(N3C[C@H](N)C[C@H](N)C3)n2)C1 | No |
| Cc1ccc(S(=O)(=O)N(Cc2ccccc2)c2ccc(Nc3nc(N4C[C@H](N)C[C@H](N)C4)nc(N4C[C@H](N)C[C@H](N)C4)n3)cc2O)cc1 | Yes |
| N[C@@H]1C[C@H](N)CN(c2nc(Nc3ccc(C(=O)CC(=O)Nc4cccc(Br)c4)cc3)nc(N3C[C@H](N)C[C@H](N)C3)n2)C1 | No |
| N[C@@H]1C[C@H](N)CN(c2nc(Nc3ccc(NC(=O)c4ccc5ccccc5c4O)cc3)nc(N3C[C@H](N)C[C@H](N)C3)n2)C1 | No |
| N[C@@H]1C[C@H](N)CN(c2nc(Nc3ccc(C(=O)CC(=O)Nc4ccc(F)c(F)c4)cc3)nc(N3C[C@H](N)C[C@H](N)C3)n2)C1 | No |

---

Tested on: Escherichia coli
Assay: Inhibition of protein synthesis in Escherichia coli S30 extracts by coupled transcription-translation assay
Assay type: functional

| Seq Text | IC50 |
| --- | --- |
| GENTAMICIN | 30 nM |

---

System: CCRF-CEM
Assay: Cytotoxicity against CEM T cells after 72 hrs by proliferation assay
Format: cell-based
Conditions: human, ccrf-cem, 72 h

| Seq Text | CC50 |
| --- | --- |
| GENTAMICIN | > 300 µM |

These data points were gathered from ChEMBL document CHEMBL1137289.
